# key: entry, value: IC50
- ASSAYED_SYSTEM: Rho-associated protein kinase 1 (Homo sapiens, UniProt Q13464)
- Sequence (Q13464 whole entry, the tested form may be a part): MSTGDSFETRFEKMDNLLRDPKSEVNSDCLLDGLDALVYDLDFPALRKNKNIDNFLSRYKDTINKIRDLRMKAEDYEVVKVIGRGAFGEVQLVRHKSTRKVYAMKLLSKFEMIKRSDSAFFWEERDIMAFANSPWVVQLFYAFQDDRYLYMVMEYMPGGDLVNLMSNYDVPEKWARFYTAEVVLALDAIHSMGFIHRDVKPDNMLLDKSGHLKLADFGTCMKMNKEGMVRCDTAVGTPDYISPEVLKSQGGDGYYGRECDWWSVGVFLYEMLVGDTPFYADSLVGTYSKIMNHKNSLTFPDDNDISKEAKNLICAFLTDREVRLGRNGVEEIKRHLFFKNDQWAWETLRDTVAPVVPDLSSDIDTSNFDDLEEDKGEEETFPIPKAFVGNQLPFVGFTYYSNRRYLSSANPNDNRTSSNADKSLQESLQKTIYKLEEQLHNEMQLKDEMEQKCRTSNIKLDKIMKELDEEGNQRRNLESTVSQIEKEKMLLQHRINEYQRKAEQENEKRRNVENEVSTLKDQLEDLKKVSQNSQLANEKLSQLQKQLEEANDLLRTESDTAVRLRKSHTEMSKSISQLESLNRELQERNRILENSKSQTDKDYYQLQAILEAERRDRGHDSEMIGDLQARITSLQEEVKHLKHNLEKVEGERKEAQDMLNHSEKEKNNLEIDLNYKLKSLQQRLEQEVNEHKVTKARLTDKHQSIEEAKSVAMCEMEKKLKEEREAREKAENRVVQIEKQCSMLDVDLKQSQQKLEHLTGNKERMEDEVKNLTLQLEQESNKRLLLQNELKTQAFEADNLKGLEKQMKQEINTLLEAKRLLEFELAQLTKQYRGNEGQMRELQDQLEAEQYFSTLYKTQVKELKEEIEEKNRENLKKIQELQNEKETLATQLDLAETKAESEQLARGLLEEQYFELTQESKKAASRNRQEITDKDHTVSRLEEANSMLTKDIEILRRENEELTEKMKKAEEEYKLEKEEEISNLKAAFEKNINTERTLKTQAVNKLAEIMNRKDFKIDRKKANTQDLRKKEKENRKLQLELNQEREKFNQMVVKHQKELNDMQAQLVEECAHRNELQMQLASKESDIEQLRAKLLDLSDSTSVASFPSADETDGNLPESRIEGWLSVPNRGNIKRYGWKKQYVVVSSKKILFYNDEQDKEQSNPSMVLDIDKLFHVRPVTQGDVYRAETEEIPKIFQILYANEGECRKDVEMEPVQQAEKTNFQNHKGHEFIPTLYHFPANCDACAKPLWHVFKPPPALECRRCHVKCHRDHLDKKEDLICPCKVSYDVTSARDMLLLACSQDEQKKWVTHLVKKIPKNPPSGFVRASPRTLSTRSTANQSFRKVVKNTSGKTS
- ASSAY_TEXT: Inhibition of recombinant human ROCK1 (17 to 535 residues) using […] as substrate incubated for 40 mins in presence of [gamma-33P]ATP and 10 uM ATP by radiometric scintillation counting analysis

For orientation, consider the following solved cases.
| LINE_NOTATION | ASSAYED_SYSTEM | OBSERVED_VALUE |
| --- | --- | --- |
| CN(C)c1ccc(C(=O)Nc2cccc(NC(=O)COc3ccc4c(c3)OCCO4)c2)cc1 | Rho-associated protein kinase 1 (Homo sapiens, UniProt Q13464) | > 10 µM |
| COc1cccc(OCC(=O)Nc2cccc(NC(=O)c3ccc(N(C)C)cc3)c2)c1 | Rho-associated protein kinase 1 (Homo sapiens, UniProt Q13464) | > 10 µM |

Now for the compound whose IC50 we want.
Task item: Lookup: IC50 / Rho-associated protein kinase 1 (Homo sapiens, UniProt Q13464) / `CC(C)(C)c1cc(C(=O)Nc2cccc(NC(=O)COc3ccc4c(=O)ccoc4c3)c2)no1`
Reply: 0.101 µM

The values you see were collected from ChEMBL document CHEMBL4376834.
